Known inhibition of a selection of compounds
System: Liver microsomes
Test: Antioxidant activity in rat liver microsomes assessed as inhibition of Fe2+-cysteine-induced lipid peroxidation measured malondialdehyde level at 10^-5 M/L incubated for 15 mins prior to FeSO4 addition measured after 15 mins by TBA method relative to control
Assay type: functional
Conditions: Microsome
Response body: numeric value in %, unit text excluded.

Worked cases, inhibition given:
structure smiles: O=C(OC[C@H]1O[C@@H](O[C@@H](C(=O)O)c2ccccc2)[C@H](O)[C@@H](O)[C@@H]1O)c1ccccc1
value observed: 60

structure smiles: O=C(OC[C@H]1O[C@@H](OC[C@H]2O[C@@H](OCc3ccccc3)[C@H](O)[C@@H](O)[C@@H]2O)[C@H](O)[C@@H](O)[C@@H]1O)c1ccccc1
value observed: 50

As a next step, examine the compound that follows.
Data request: Requested field: inhibition. Item: CCOC(=O)[C@H](O[C@@H]1O[C@H](CO[C@@H]2O[C@H](CO)[C@@H](O)[C@H](O)[C@H]2O)[C@@H](O)[C@H](O)[C@H]1O)c1ccccc1
Data returned: 51
